target: folate receptor alpha (FRα) on cells (human, UniProt P15328 25-234); assay: cell-based or functional assay
Sequence (P15328 25-234): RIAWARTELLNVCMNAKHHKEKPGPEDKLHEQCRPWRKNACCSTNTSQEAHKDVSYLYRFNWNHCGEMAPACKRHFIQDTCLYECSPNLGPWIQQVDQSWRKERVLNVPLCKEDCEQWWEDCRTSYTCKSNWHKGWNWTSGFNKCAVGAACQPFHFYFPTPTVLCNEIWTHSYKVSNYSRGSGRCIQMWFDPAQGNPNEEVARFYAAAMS
measurement-name: IC50, in vitro cytotoxicity (WST-8, 5 days), Jeg-3 cells, +Block

Worked cases, IC50, in vitro cytotoxicity (WST-8, 5 days), Jeg-3 cells, +Block given:
M9346A-sGMBS-LDL-DM (conjugate 17c) (antibody, human IgG1, kappa, V domains shown, maytansinoid LDL-DM (compound 14c, L-Ala-D-Ala-L-Ala) linked through sulfo-GMBS to antibody amines, 3.7 mol LDL-DM/mol antibody) VH: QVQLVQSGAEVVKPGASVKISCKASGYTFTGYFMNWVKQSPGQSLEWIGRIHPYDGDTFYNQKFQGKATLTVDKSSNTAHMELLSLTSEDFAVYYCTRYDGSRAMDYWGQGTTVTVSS VL: DIVLTQSPLSLAVSLGQPAIISCKASQSVSFAGTSLMHWYHQKPGQQPRLLIYRASNLEAGVPDRFSGSGSKTDFTLTISPVEAEDAATYYCQQSREYPYTFGGGTKLEIKR ... > 50 nM
conjugate 17g (antibody, human IgG1, kappa, V domains shown, thio-peptide-maytansinoid 14g linked through sulfo-GMBS to antibody amines (Example 4)) VH: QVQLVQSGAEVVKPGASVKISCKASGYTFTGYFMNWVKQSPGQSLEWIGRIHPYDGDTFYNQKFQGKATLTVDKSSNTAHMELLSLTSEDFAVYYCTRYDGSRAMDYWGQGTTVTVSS VL: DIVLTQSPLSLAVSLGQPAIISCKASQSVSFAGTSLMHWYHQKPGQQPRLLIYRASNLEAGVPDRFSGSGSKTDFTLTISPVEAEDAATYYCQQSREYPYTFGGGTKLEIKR ... > 50 nM
conjugate 17h (antibody, human IgG1, kappa, V domains shown, thio-peptide-maytansinoid 14h linked through sulfo-GMBS to antibody amines (Example 4)) VH: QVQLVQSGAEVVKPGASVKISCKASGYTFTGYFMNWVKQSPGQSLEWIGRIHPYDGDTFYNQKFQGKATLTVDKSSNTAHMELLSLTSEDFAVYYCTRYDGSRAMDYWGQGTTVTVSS VL: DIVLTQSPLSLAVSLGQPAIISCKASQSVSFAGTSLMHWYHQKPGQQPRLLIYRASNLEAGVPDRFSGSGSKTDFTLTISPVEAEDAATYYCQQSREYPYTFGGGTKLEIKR ... > 50 nM
Mov19v1.6-GMBS-dAlalAla-PAB-DM1 (conjugate 4b) (antibody, human IgG1, kappa, V domains shown, D-Ala-L-Ala-PAB-DM1 linked through GMBS, about 3.5 DM/Ab) VH: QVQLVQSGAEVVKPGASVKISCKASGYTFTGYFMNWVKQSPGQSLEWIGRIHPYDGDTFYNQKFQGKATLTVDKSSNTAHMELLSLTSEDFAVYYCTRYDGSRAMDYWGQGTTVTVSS VL: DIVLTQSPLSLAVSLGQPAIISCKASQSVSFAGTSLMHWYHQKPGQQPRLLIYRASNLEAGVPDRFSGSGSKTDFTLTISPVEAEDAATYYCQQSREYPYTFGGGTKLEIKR ... 10 nM

Now examine the next entry.
Exercise: Give the measured IC50, in vitro cytotoxicity (WST-8, 5 days), Jeg-3 cells, +Block of conjugate 17i (antibody, human IgG1, kappa, V domains shown, thio-peptide-maytansinoid 14i linked through sulfo-GMBS to antibody amines (Example 4)) VH: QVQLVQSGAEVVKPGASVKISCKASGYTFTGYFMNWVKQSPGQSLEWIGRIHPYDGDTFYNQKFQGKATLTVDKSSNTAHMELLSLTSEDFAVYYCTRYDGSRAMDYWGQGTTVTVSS VL: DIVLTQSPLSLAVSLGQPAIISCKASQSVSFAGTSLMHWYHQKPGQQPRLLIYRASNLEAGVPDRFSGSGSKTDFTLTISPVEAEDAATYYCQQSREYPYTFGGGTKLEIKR .
Solution: > 50 nM
